Reference for the values: patent US20230203058A1

# Target or test system: human ENT1 (Homo sapiens, UniProt Q99808)
# Sequence (Q99808 1-456): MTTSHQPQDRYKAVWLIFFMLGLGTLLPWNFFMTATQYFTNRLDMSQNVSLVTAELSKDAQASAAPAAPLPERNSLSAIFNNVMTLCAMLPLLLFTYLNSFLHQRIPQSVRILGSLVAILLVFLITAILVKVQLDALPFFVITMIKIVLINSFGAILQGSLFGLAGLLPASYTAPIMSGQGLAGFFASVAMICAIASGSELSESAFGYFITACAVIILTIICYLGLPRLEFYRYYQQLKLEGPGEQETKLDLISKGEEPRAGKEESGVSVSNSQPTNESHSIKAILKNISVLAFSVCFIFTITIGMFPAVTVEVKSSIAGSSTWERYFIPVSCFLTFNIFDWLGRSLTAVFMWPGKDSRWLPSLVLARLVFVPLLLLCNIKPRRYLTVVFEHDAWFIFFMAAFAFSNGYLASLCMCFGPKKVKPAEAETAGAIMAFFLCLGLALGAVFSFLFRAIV
# Run description: ENT1 binding assay (competition with Sahenta-DY647 on JAR cells)
# Parameters: JAR cells expressing ENT1 were bought from ATCC® (HTB-144TM); host or cells: JAR cells (human choriocarcinoma line; whole cells)
# Protocol conditions: competition with Sahenta-DY647 100 nM, 4° C.

{"Compound": "COc1cc2cc(c1OC)OCCCC(OC(=O)CCN1C(=O)CCC1=O)CCN1CCCN(CCCOC2=O)CC1 (stereo not shown)", "Target or test system": "human ENT1 (Homo sapiens, UniProt Q99808)", "IC50": "20 to 500 nM"}
{"Compound": "COc1cc2cc(c1OC)OCCCC(OC(=O)CCn1cncn1)CCN1CCCN(CCCOC2=O)CC1 (stereo not shown)", "Target or test system": "human ENT1 (Homo sapiens, UniProt Q99808)", "IC50": "1 to 20 nM"}
{"Compound": "O=C1NCCCN2CCCN(CC[C@H](OC(=O)c3ccccc3)CCCOc3cccc1c3)CC2 (stereo in doubt)", "Target or test system": "human ENT1 (Homo sapiens, UniProt Q99808)", "IC50": "> 500 nM"}
{"Compound": "CCOc1cc(C(=O)OC2CCCOc3cc(cc(OC)c3OC)C(=O)OCCCN3CCCN(CC2)CC3)cc(OCC)c1OCC (stereo not shown)", "Target or test system": "human ENT1 (Homo sapiens, UniProt Q99808)", "IC50": "1 to 20 nM"}
{"Compound": "COc1cc2cc(c1OC)OCCCC(OC(=O)c1cccc(C(F)(F)F)c1)CCN1CCCN(CCCOC2=O)CC1 (stereo not shown)", "Target or test system": "human ENT1 (Homo sapiens, UniProt Q99808)", "IC50": "1 to 20 nM"}
{"Compound": "COc1cc2cc(c1OC)OCCCC(OC(=O)CC(C)C)CCN1CCCN(CCCOC2=O)CC1 (stereo not shown)", "Target or test system": "human ENT1 (Homo sapiens, UniProt Q99808)", "IC50": "20 to 500 nM"}
{"Compound": "COc1cc2cc(c1OC)OCCCC(OC(=O)c1ccc(C#N)c(F)c1)CCN1CCCN(CCCOC2=O)CC1 (stereo not shown)", "Target or test system": "human ENT1 (Homo sapiens, UniProt Q99808)", "IC50": "1 to 20 nM"}
